The measured values listed here are drawn from PubChem BioAssay AID1919015.

Tested on: OVCAR-5 complex spheroids with HUVEC/MSC, viability, % test/control
Experiment Notes: Anticancer human tumor OVCAR-5 cell line growth inhibition [AhR];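 further: spheroids exposed to compounds for 7 days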
Test Context: curve of first compound; second compound 0.316 µM

Molecule: CC1(C)CCC(CN2CCN(c3ccc(C(=O)NS(=O)(=O)c4ccc(NCC5CCOCC5)c([N+](=O)[O-])c4)c(Oc4cnc5[nH]ccc5c4)c3)CC2)=C(c2ccc(Cl)cc2)C1 + CC(CO)NC(=O)c1cc(-c2ccc(Cl)cc2)nn(-c2cnn(C)c2)c1=O
IC50: > 10000 nM
--
Molecule: CCN(c1cc(-c2ccc(CN3CCOCC3)cc2)cc(C(=O)NCc2c(C)cc(C)[nH]c2=O)c1C)C1CCOCC1 + Cc1ccccc1N=Nc1ccc(NC(=O)c2ccnn2C)c(C)c1
IC50: > 3000 nM
--
Molecule: Nc1ncn(C2CC(O)C(CO)O2)c(=O)n1 (stereo unspecified) + Cc1cncc(-c2nc(NCCc3c[nH]c4ccccc34)c3ncn(C(C)C)c3n2)c1
IC50: > 1000 nM
--
Molecule: COc1cc(C2c3cc4c(cc3C(OC3OC5COC(C)OC5C(O)C3O)C3COC(=O)C23)OCO4)cc(OC)c1O (stereo unspecified) + Cc1cncc(-c2nc(NCCc3c[nH]c4ccccc34)c3ncn(C(C)C)c3n2)c1
IC50: 2940 nM
--
Molecule: COc1ccc([C@@H](O)c2cc(-c3ncnc4cc(N5CCOCC5)ccc34)c(F)cc2Cl)nn1 + CC(CO)NC(=O)c1cc(-c2ccc(Cl)cc2)nn(-c2cnn(C)c2)c1=O
IC50: 2940 nM
--
Molecule: CC[C@@]1(O)C(=O)OCc2c1cc1n(c2=O)Cc2cc3c(CN(C)C)c(O)ccc3nc2-1 + CC(CO)NC(=O)c1cc(-c2ccc(Cl)cc2)nn(-c2cnn(C)c2)c1=O
IC50: > 100 nM
--
Molecule: O=C(c1cc(Cc2n[nH]c(=O)c3ccccc23)ccc1F)N1CCN(C(=O)C2CC2)CC1 + CC(CO)NC(=O)c1cc(-c2ccc(Cl)cc2)nn(-c2cnn(C)c2)c1=O
IC50: > 10000 nM
--
Molecule: COc1cc(Nc2ncc3c(n2)-c2ccc(Cl)cc2C(c2c(F)cccc2OC)=NC3)ccc1C(=O)O + Cc1ccccc1N=Nc1ccc(NC(=O)c2ccnn2C)c(C)c1
IC50: 2970 nM
--
Molecule: Cn1ncnc1C1c2n[nH]c(=O)c3cc(F)cc(c23)NC1c1ccc(F)cc1 (stereo unspecified) + Cc1ccccc1N=Nc1ccc(NC(=O)c2ccnn2C)c(C)c1
IC50: > 100 nM
--
Molecule: NS(=O)(=O)OCC1CC(n2ccc3c(NC4CCc5ccccc54)ncnc32)CC1O (stereo unspecified) + Cc1cncc(-c2nc(NCCc3c[nH]c4ccccc34)c3ncn(C(C)C)c3n2)c1
IC50: 114 nM
--
Molecule: CC(C)c1c(-c2ccccc2)nc2c(C#N)c[nH]n2c1=O + Cc1cncc(-c2nc(NCCc3c[nH]c4ccccc34)c3ncn(C(C)C)c3n2)c1
IC50: > 10000 nM

----------
Below, each entry is listed alongside its reported viability, T/C.
Test system: OVCAR-5 complex spheroids with HUVEC/MSC, viability, % test/control
Experiment Notes: Anticancer human tumor OVCAR-5 cell line growth inhibition [AhR];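 further: spheroids exposed to compounds for 7 days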;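 on viability, T/C: 100% = DMSO vehicle control wells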
Test Context: second compound 1 µM; first compound 0.03 µM; stronger effect = lower value
Property Label: viability, T/C (%)

Compound: O=C(C=Cn1cnc(-c2cc(C(F)(F)F)cc(C(F)(F)F)c2)n1)NNc1cnccn1 + Cc1ccccc1N=Nc1ccc(NC(=O)c2ccnn2C)c(C)c1
Uom: %
Experimental Value: 116
--
Compound: CC(C)CC(NC(=O)C(Cc1ccccc1)NC(=O)c1cnccn1)B(O)O (stereo not given) + Cc1cncc(-c2nc(NCCc3c[nH]c4ccccc34)c3ncn(C(C)C)c3n2)c1
Uom: %
Experimental Value: 68.2
--
Compound: Nc1ncn(C2CC(O)C(CO)S2)c(=O)n1 (stereo not given) + Cc1ccccc1N=Nc1ccc(NC(=O)c2ccnn2C)c(C)c1
Uom: %
Experimental Value: 108
--
Compound: Nc1ncn(C2CC(O)C(CO)S2)c(=O)n1 (stereo not given) + Cc1cncc(-c2nc(NCCc3c[nH]c4ccccc34)c3ncn(C(C)C)c3n2)c1
Uom: %
Experimental Value: 79.7
--
Compound: CCc1c2c(nc3ccc(O)cc13)-c1cc3c(c(=O)n1C2)COC(=O)[C@]3(O)CC + Cc1ccccc1N=Nc1ccc(NC(=O)c2ccnn2C)c(C)c1
Uom: %
Experimental Value: 38.3
--
Compound: Nc1ncn(C2CC(O)C(CO)S2)c(=O)n1 (stereo not given) + CC(CO)NC(=O)c1cc(-c2ccc(Cl)cc2)nn(-c2cnn(C)c2)c1=O
Uom: %
Experimental Value: 109
--
Compound: CCN(c1cc(-c2ccc(CN3CCOCC3)cc2)cc(C(=O)NCc2c(C)cc(C)[nH]c2=O)c1C)C1CCOCC1 + Cc1ccccc1N=Nc1ccc(NC(=O)c2ccnn2C)c(C)c1
Uom: %
Experimental Value: 110
--
Compound: O=C(C=Cn1cnc(-c2cc(C(F)(F)F)cc(C(F)(F)F)c2)n1)NNc1cnccn1 + CC(CO)NC(=O)c1cc(-c2ccc(Cl)cc2)nn(-c2cnn(C)c2)c1=O
Uom: %
Experimental Value: 114
--
Compound: O=C(C=Cn1cnc(-c2cc(C(F)(F)F)cc(C(F)(F)F)c2)n1)NNc1cnccn1 + Cc1cncc(-c2nc(NCCc3c[nH]c4ccccc34)c3ncn(C(C)C)c3n2)c1
Uom: %
Experimental Value: 108
--
Compound: CCN(c1cc(-c2ccc(CN3CCOCC3)cc2)cc(C(=O)NCc2c(C)cc(C)[nH]c2=O)c1C)C1CCOCC1 + Cc1cncc(-c2nc(NCCc3c[nH]c4ccccc34)c3ncn(C(C)C)c3n2)c1
Uom: %
Experimental Value: 93.4
--
Compound: CCc1c2c(nc3ccc(O)cc13)-c1cc3c(c(=O)n1C2)COC(=O)[C@]3(O)CC + CC(CO)NC(=O)c1cc(-c2ccc(Cl)cc2)nn(-c2cnn(C)c2)c1=O
Uom: %
Experimental Value: 35.9
--
Compound: CC(C)CC(NC(=O)C(Cc1ccccc1)NC(=O)c1cnccn1)B(O)O (stereo not given) + CC(CO)NC(=O)c1cc(-c2ccc(Cl)cc2)nn(-c2cnn(C)c2)c1=O
Uom: %
Experimental Value: 39.1
--
Compound: CC(C)CC(NC(=O)C(Cc1ccccc1)NC(=O)c1cnccn1)B(O)O (stereo not given) + Cc1ccccc1N=Nc1ccc(NC(=O)c2ccnn2C)c(C)c1
Uom: %
Experimental Value: 69.4
--
Compound: CCc1c2c(nc3ccc(O)cc13)-c1cc3c(c(=O)n1C2)COC(=O)[C@]3(O)CC + Cc1cncc(-c2nc(NCCc3c[nH]c4ccccc34)c3ncn(C(C)C)c3n2)c1
Uom: %
Experimental Value: 42.3
--
Compound: CCN(c1cc(-c2ccc(CN3CCOCC3)cc2)cc(C(=O)NCc2c(C)cc(C)[nH]c2=O)c1C)C1CCOCC1 + CC(CO)NC(=O)c1cc(-c2ccc(Cl)cc2)nn(-c2cnn(C)c2)c1=O
Uom: %
Experimental Value: 118

----------
Catalogue of viability, T/C readings, one per entry.
Tested on: OVCAR-5 complex spheroids with HUVEC/MSC, viability, % test/control
Experiment Notes: Anticancer human tumor OVCAR-5 cell line growth inhibition [AhR];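 further: spheroids exposed to compounds for 7 days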;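 on viability, T/C: 100% = DMSO vehicle control wells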
Test Context: second compound 3.16 µM; first compound 0.0316 µM; stronger effect = lower value

Compound: COc1cccc2c1C(=O)c1c(O)c3c(c(O)c1C2=O)CC(O)(C(=O)CO)CC3OC1CC(N)C(O)C(C)O1 (stereo not drawn) + Cc1cncc(-c2nc(NCCc3c[nH]c4ccccc34)c3ncn(C(C)C)c3n2)c1
Uom: %
viability, T/C: 42.7
--
Compound: Nc1ccccc1NC(=O)c1ccc(CNC(=O)OCc2cccnc2)cc1 + CC(CO)NC(=O)c1cc(-c2ccc(Cl)cc2)nn(-c2cnn(C)c2)c1=O
Uom: %
viability, T/C: 85.9
--
Compound: COc1cccc2c1C(=O)c1c(O)c3c(c(O)c1C2=O)CC(O)(C(=O)CO)CC3OC1CC(N)C(O)C(C)O1 (stereo not drawn) + Cc1ccccc1N=Nc1ccc(NC(=O)c2ccnn2C)c(C)c1
Uom: %
viability, T/C: 65.3

----------
Reported viability, T/C values for a set of molecules
Test system: OVCAR-5 complex spheroids with HUVEC/MSC, viability, % test/control
Experiment Notes: Anticancer human tumor OVCAR-5 cell line growth inhibition [AhR];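 further: spheroids exposed to compounds for 7 days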;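 on viability, T/C: 100% = DMSO vehicle control wells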
Test Context: second compound 3.16 µM; first compound 0.0316 µM; stronger effect = lower value

Molecule: COc1cc(Nc2ncc3c(n2)-c2ccc(Cl)cc2C(c2c(F)cccc2OC)=NC3)ccc1C(=O)O + Cc1ccccc1N=Nc1ccc(NC(=O)c2ccnn2C)c(C)c1
Target Under Test: OVCAR-5 complex spheroids with HUVEC/MSC, viability, % test/control
Uom: %
viability, T/C: 97.6
//
Molecule: Nc1ccccc1NC(=O)c1ccc(CNC(=O)OCc2cccnc2)cc1 + Cc1cncc(-c2nc(NCCc3c[nH]c4ccccc34)c3ncn(C(C)C)c3n2)c1
Target Under Test: OVCAR-5 complex spheroids with HUVEC/MSC, viability, % test/control
Uom: %
viability, T/C: 71.2
//
Molecule: CC(C)c1c(-c2ccccc2)nc2c(C#N)c[nH]n2c1=O + Cc1ccccc1N=Nc1ccc(NC(=O)c2ccnn2C)c(C)c1
Target Under Test: OVCAR-5 complex spheroids with HUVEC/MSC, viability, % test/control
Uom: %
viability, T/C: 112
//
Molecule: CC1(C)CCC(CN2CCN(c3ccc(C(=O)NS(=O)(=O)c4ccc(NCC5CCOCC5)c([N+](=O)[O-])c4)c(Oc4cnc5[nH]ccc5c4)c3)CC2)=C(c2ccc(Cl)cc2)C1 + CC(CO)NC(=O)c1cc(-c2ccc(Cl)cc2)nn(-c2cnn(C)c2)c1=O
Target Under Test: OVCAR-5 complex spheroids with HUVEC/MSC, viability, % test/control
Uom: %
viability, T/C: 102
//
Molecule: O=C(C=Cc1cccc(S(=O)(=O)Nc2ccccc2)c1)NO + Cc1cncc(-c2nc(NCCc3c[nH]c4ccccc34)c3ncn(C(C)C)c3n2)c1
Target Under Test: OVCAR-5 complex spheroids with HUVEC/MSC, viability, % test/control
Uom: %
viability, T/C: 79.4
//
Molecule: COc1ccc([C@@H](O)c2cc(-c3ncnc4cc(N5CCOCC5)ccc34)c(F)cc2Cl)nn1 + Cc1ccccc1N=Nc1ccc(NC(=O)c2ccnn2C)c(C)c1
Target Under Test: OVCAR-5 complex spheroids with HUVEC/MSC, viability, % test/control
Uom: %
viability, T/C: 113
